ASSAY_DETAILS: NCI Yeast Anticancer Drug Screen. Data for the cln2 rad14 strain (AID 165);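 note: 0% = growth equal to vehicle treated cultures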
TEST_CONDITIONS: S. cerevisiae cln2 rad14 strain, at 50.0 µM, hits give high values
About 79,000 compounds went through this panel and 15% of them were active in at least one assay; those are over-represented in the sample as a whole.
Give measured growth inhibition for each item. Keep answers brief.
All answers are understood in %, so give the number only.

Please fill in: growth inhibition reported for OC(CCc1ccco1)CCc1ccco1 = 1.4

Entry COc1ccc(-c2coc3c4c(c(CC=C(C)C)c(O)c3c2=O)OC(C)(C)C=C4)cc1OC ; growth inhibition = 37.7

According to the records, this compound Cc1ccc(N=Nc2ccc(N)cc2C)c(S(N)(=O)=O)c1 displays growth inhibition of 5.05

Lab note: Nc1nc2c(nnn2C2OC(CO)C(O)C2O)c(=O)[nH]1 (stereo unspecified) gave growth inhibition of -37.5

The recorded growth inhibition for entry CC(=O)/C(=C/n1ccc(=O)[nH]c1=S)C(=O)Nc1ccc(Cl)cc1 equals 11.7

Sample COc1ncnc2ccccc12 ; growth inhibition observed: -32.8

growth inhibition reading for COC(=O)c1ccccc1N=NNc1ccc(C)c(Cl)c1 : -11.4

The compound identified as Cc1cc(C(N)=O)no1 registered its growth inhibition at -10

Just so you know, measured growth inhibition for CC(=O)OC1/C=C(\C)C(OC(C)=O)C/C=C(/C)CCC2C(/C=C/C1=O)C2(C)C (stereo unspecified) came out at 64.1

The value of growth inhibition measured for the compound O=C(O)c1ccccc1SC1OC(=O)c2ccccc21 (stereo unspecified) turned out to be -58.7

growth inhibition recorded for this compound, CC(C)/C=N\n1c(N)c(C#N)c(C#N)c1C(C)C , is 5.95

Memo: CC1=C(C(=O)NCc2ccccc2)C(c2ccc(Cl)c(Cl)c2)C(C(=O)NCc2ccccc2)=C(C)N1 , reported growth inhibition: 21.2

Measured growth inhibition, CN(C)c1c2c(oc(=O)c1Cl)-c1ccccc1OCC2 : -4.85

response.value for O=C(CCl)OCC(CCl)OC(=O)CCl (stereo unspecified) (field: growth inhibition) = -15.2

Looking up CCSC(=S)S , I see its growth inhibition listed as 7.15

response.value for O=C(O)c1ccccc1C(=O)OC1CC2C=CC1C21CC1 (stereo unspecified) (field: growth inhibition) = -1.9

Note to self: growth inhibition recorded for COC(=O)CCCCC#CCCCCC(=O)OC was -2.6

// sample O=[N+]([O-])c1cc(F)ccc1-c1ccc(F)cc1 , its growth inhibition was -20.7

Looking up O=C(O)C(C(C(=O)O)P(=O)(O)O)P(=O)(O)O (stereo unspecified) , I found its growth inhibition recorded as -38.8

response.value for COc1ccc(CC2CCCNC2C(=O)O)cc1 (stereo unspecified) (field: growth inhibition) = -38.7

In plain terms, CC(=O)CC(=O)Nc1ccc(C)c(C)c1 has a documented growth inhibition of 7.95

Briefly, growth inhibition measured for COc1cc2c[n+]3c4c(cccc4c2cc1OC)CC3 : -2.7

Record summary for O=C(Nc1cccc(F)c1)Oc1ccc(OCc2ccccc2)cc1 : reported growth inhibition = 8.7

# growth inhibition of CC(C)(C)c1ccc(/C=N/NC(=O)c2cccnc2)cc1 = 14.3

// field: growth inhibition; key: OC1CC/C=C\CC/C=C/CCC1O (stereo unspecified) ; value = 24.1

What the record says about CCC(C)(O)c1cn(-c2cccc(S(=O)(=O)O)c2)nn1 (stereo unspecified) : growth inhibition is 5.95

* * *

Give measured growth inhibition for each item. Keep answers brief.
ASSAY_DETAILS: NCI Yeast Anticancer Drug Screen. Data for the cln2 rad14 strain (AID 165);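 note: 0% = growth equal to vehicle treated cultures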
TEST_CONDITIONS: S. cerevisiae cln2 rad14 strain, at 50.0 µM, hits give high values
The panel holds about 79,000 compounds, 15% with a hit somewhere; the sample as a whole holds those more often.
Response body: numeric value in %, unit text excluded.

So, O=C1CCC(=O)O1 ? Its growth inhibition was 6.45

Reported growth inhibition of CCOC(=O)c1c[nH]c(C(=O)OCC)c1C : -59.9

Reported growth inhibition of CCCCCCCCCCCCCCCc1cc(=O)n(-c2ccc(NC(C)=O)cc2)n1C : 3.1

The recorded growth inhibition for entry COC(=O)CCCCCCCCCCCCC1C=CCC1 (configuration not stated) equals 9.25

The reported value for Nc1ncnc2c1ccn2C1OC2COP(=O)(O)OC2C1O (configuration not stated) in terms of growth inhibition is 8.45

# compound CS(=O)(=O)Oc1ncc(Cl)cc1Cl ; its growth inhibition = 14.5

Reported growth inhibition ( C/C=C/c1ccc(OC(C)C(=O)c2ccc3c(c2)OCO3)c(OC)c1 (configuration not stated) ) = -10.5

What the record says about CC(C)(C#CCOC(=O)c1ccc([N+](=O)[O-])cc1)OC(=O)c1ccc([N+](=O)[O-])cc1 : growth inhibition is 32.1

For CCNS(=O)(=O)c1ccccc1 the compound record lists growth inhibition as 5.9

Looking up CC(=O)/C(=C/n1ccc(=O)[nH]c1=S)C(=O)Nc1ccccc1 , I see its growth inhibition listed as 11.2

Reported growth inhibition for O=C1CCCCC1O (configuration not stated) was 0.05

Recorded growth inhibition (compound CC(=O)Nc1ccc(/C=C/C(=O)c2sc(-c3cccnc3)nc2C)cc1 ): 17.9

// Nc1ccn(CCC(COCc2ccccc2)COCc2ccccc2)c(=O)n1 : growth inhibition value = -5.6

Entry Cc1ccc([N+](=O)[O-])c(N)c1 — recorded growth inhibition = 18.9

Sure, the documented growth inhibition for NCCOCC(N)C(=O)O (configuration not stated) is -27.1

Noted for Cn1c(=O)c(-c2ccccc2)c(O)c2ccccc21 : its growth inhibition reads 27.4

Sure, the documented growth inhibition for c1ccc2c(c1)n1nnnc1c1nnnn21 is 23.7

growth inhibition for CCN(CC)CCCC(C)Nc1ccnc2ccc3nn(C)nc3c12 (configuration not stated) is 2.25

So for COc1ccc(NC(C)=O)c(C(=O)CCNC(C)=O)c1 , the logged growth inhibition turned out to be -7.4

CCC(=O)CCc1ccc2ccccc2c1 yielded growth inhibition of -16.9

Quick note, growth inhibition for CCC/C(=C(\C)c1ccccc1)c1ccccc1 landed at 14.1

Reported growth inhibition ( CC(=O)Oc1cccc2ccccc12 ) = -109

growth inhibition reading for NC(Cc1ccccc1)C(=O)O (configuration not stated) : -73.7

Briefly, growth inhibition measured for COc1ccc(C(C#N)NNc2nc(C)cc(=O)[nH]2)cc1OC (configuration not stated) : -19.6

Just so you know, measured growth inhibition for NC(N)=N/N=C/c1c(Cl)nc2sccn12 came out at -30.3

Per the record, c1ccc(-c2ccc3c(c2)NCCN3)cc1 has growth inhibition of -4.35

So, OCCCNCc1ccncc1 ? Its growth inhibition was 33.5

Memo: CC(C)(C)C1CCC2c3c([nH]c4ccccc34)C3C(=O)N(c4ccc(Br)cc4)C(=O)C3C2C1 (configuration not stated) , reported growth inhibition: -35.6

Quick note, growth inhibition for O=S(CCO)c1ccc(Cl)cc1 (configuration not stated) landed at -55.5

The reported value for CCCCN1CCNC1=S in terms of growth inhibition is -10.6

Just so you know, measured growth inhibition for CCN(CC)Cc1cc(Nc2ncnc3sc(C)c(C)c23)ccc1O came out at -13.2

growth inhibition reading for Cc1ccc(OC/C=C/c2ccc([N+](=O)[O-])cc2)cc1 : -58.8

// recorded growth inhibition for O=C(O)c1ccc(C(=O)c2ccc(Cl)cc2)cc1 : -6.35

Entry CCN(Cc1cc(Nc2ccnc3cc(Cl)ccc23)ccc1O)C(=O)N1CCN(C)CC1 — recorded growth inhibition = 15.8

Documented growth inhibition of COC(=O)c1ccccc1N=Cc1cc(Cl)ccc1O : 6.1

growth inhibition measured on COC(=O)CC1C2(C)C3=C(C)C(c4ccoc4)CC3OC2C2OC(=O)C3(C)C=CC(=O)C1(C)C23 (configuration not stated) = 81

Reported growth inhibition of O=C(O)CCSSCCC(=O)O : -1.65

Reported growth inhibition of NC(=S)N/N=C/c1ccco1 : -67.2

Data point: COc1ccc2c(c1)CN(C)c1ccc(OC)cc1CN2C ; growth inhibition = 12.4

Recorded result, CC(C)(C)N1CC(C(O)c2ccccc2)C1c1ccccc1 (configuration not stated) , growth inhibition: -13.6

# growth inhibition of COCn1cnc2c(ccn2C2OC(CO)C(O)C2O)c1=O (configuration not stated) = -2.1

The reported growth inhibition of the compound CC1=CC(=O)c2c(C=O)c(O)c(O)c(C(C)C)c2C1=O was 91.1

What the record says about CC(=O)Nc1c(CCCCc2ccccc2)[nH]c(=O)[nH]c1=O : growth inhibition is 1.4

Item: O=C1C=CC(=O)C1 | growth inhibition: -0.3

Value of measured growth inhibition for the entry Clc1cccc(C=NC23CC4CC(CC(C4)C2)C3)c1Cl : -6

compound NCCCOc1ccccc1 , growth inhibition observed: -10.3

Entry under test: CCN(CC)CC(C(=O)Nc1c(C)cccc1C)/C(C)=N\NC(=O)C[N+](C)(C)C (configuration not stated) . Its growth inhibition was -21.8

# growth inhibition (compound: CN(C)CCCNc1ccc2ncn3c4ccccc4c(=O)c1c23 ) is 20.9

The measured growth inhibition associated with CCOC(=O)C1C(C)=CC(=O)CC1C (configuration not stated) reads -4.8

growth inhibition recorded for this compound, O=C1c2ccccc2N(Cc2cccc(F)c2)C2=NCCCC12 (configuration not stated) , is 0.35

Reported growth inhibition of Cc1ccc(S(=O)(=O)CC(=O)CC(=O)C(=O)Nc2ccc(C)cc2C)cc1 : 2

Lookup result for CCCCCCCC/C=C\CCCCCCCC(=O)OC ; measured growth inhibition: -32.1
